Entries annotated with measured hu-IL1RaP ELISA (OD)
Target: T1, rhIL-1RAcP/Fc Chimera (human, UniProt Q9NPH3 21-359)
T1 construct: also called P013_03; P013-03
T1 sequence (looked up): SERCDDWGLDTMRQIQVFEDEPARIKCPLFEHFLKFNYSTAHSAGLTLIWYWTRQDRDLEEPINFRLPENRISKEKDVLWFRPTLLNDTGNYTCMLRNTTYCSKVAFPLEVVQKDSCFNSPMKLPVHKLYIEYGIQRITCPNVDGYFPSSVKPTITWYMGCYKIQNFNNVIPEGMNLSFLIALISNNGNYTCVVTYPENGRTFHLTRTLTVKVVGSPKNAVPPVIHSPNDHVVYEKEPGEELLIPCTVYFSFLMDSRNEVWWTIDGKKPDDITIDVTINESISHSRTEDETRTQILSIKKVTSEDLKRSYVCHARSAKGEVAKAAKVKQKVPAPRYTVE
Assay: ELISA, primary supernatant, coated hu-IL-1RAcP-Fc
# do not omit the unit; it follows the number

Worked cases, hu-IL1RaP ELISA (OD) given:
P013.S.01.B.C02 (antibody, V domains shown, rabbit monoclonal antibody; also called P013.A.00014.C10) VH: QSLEESGGDLVKPGASLTLTCTASGFSFSSSHYMCWVRQAPGKGLEWIACIYAGSSGNTYYANWAKGRFTISKTSSTTVTLQMTSLTAADTATYFCARVDASSSGSWDLWGPGTLVTVSS VL: AIEMTQTPFSVSAAVGGTVTINCQASESIYSNLAWYQQILGQPPKLLIYAASLLASGVPSRFKGSGSGTEYTLTISGVQSADAATYYCQSASYSTGPDWTFGGGTEVVVE
3.4 OD
P013.S.02.B.F04 (antibody, V domains shown, rabbit monoclonal antibody; also called P013.A.00109.B02) VH: QEQLVESGGDLVKPEGSLTLTCTASGFSFSSNYWICWVRQAPGKGLEWIACIYTSTDTTYYPNWAKGRFTISKTSSTTVTLQMTSLTAADTATYFCARDLLVVTSFNLWGQGTLVTVSS VL: ALVMTQTPSPVSAAVGGTVTINCQASEDIYSNLAWFQQKPGQPPKLLIYGASTLASGVPSRFSGSGSGTEFTLTISGVQSDDAATYYCLGVCTDISADDLYNTFGGGTEVVVK
3.5 OD

Now examine the next entry.
Which measured hu-IL1RaP ELISA (OD) value corresponds to P013.S.01.B.G05 (antibody, V domains shown, rabbit monoclonal antibody; also called P013.A.00088.C10) VH: LEQSGGGAEGGLVKPGGSLELCCKASGFSLSSAYWICWVRQAPGKGLEWVGCIYADSSSITYYASWVNGRFTLSRDIDQSTGCLQLNSLTAADTAMYYCARDYGGSGYNFNLWGQGTLVTVSS VL: ALVMTQTPSPVSAAVGGTVTISCQASEDIYSNLAWYQQKRGQPPKLLIYYASTLASGVPSRFSGSGSGTEFTLTISGLQSDDAATYYCLGVCTYINANGWDNAFGGGTEVVVK ?
3.3 OD

Recorded values, source patent US20190106487A1.
